System: MCF7;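 note: secreted proteins added to cultured cells, EdU pulse at the end, nuclei found by Hoechst imaging, EdU status from nuclear versus surrounding ring intensity ratio, PBS as neutral control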
Test: percentage of EdU-negative (G0-arrested) nuclei per well, 72 h; higher = more G0 arrest
Details: protein concentration 0.0225 µM; reference: sequence is the full UniProt precursor, the tested protein was the secreted form or ectodomain
reported_metric: percentage of EdU-negative (%)
Value expressed in %; do not type the unit.

Would you please look over these solved cases?
Ask | Look up and state reported percentage of EdU-negative for MSVMKPCLMTIAILMILAQKTPGGLFRSHNGKSREPWNPCELYQGMCRNACREYEIQYLTCPNDQKCCLKLSVKITSSKNVKEDYDSNSNLSVTNSSSYSHI [Q30KQ4]
Reply | 25.4

Ask | For the sequence MPPRGPASELLLLRLLLLGAATAAPLAPRPSKEELTRCLAEVVTEVLTVGQVQRGPCTALLHKELCGTEPHGCASTEEKGLLLGDFKKQEAGKMRSSQEVRDEEEEEVAERTHKSEVQEQAIRMQGHRQLHQEEDEEEEKEERKRGPMETFEDLWQRHLENGGDLQKRVAEKASDKETAQFQAEEKGVRVLGGDRSLWQGAERGGGERREDLPHHHHHHHQPEAEPRQEKEEASEREEKEVEQLEHLRDELKKVTETLGEQLRREG [I3L3R5] , give its measured percentage of EdU-negative value.
Reply | 26.1

***
Ask | Identify the reported percentage of EdU-negative for the following entry. `MKGFTATLFLWTLIFPSCSGGGGGKAWPTHVVCSDSGLEVLYQSCDPLQDFGFSVEKCSKQLKSNINIRFGIILREDIKELFLDLALMSQGSSVLNFSYPICEAALPKFSFCGRRKGEQIYYAGPVNNPEFTIPQGEYQVLLELYTEKRSTVACANATIMCS`
Reply | 28.5

Ask | State, in one line, measured percentage of EdU-negative of `MRAPHLHLSAASGARALAKLLPLLMAQLWAAEAALLPQNDTRLDPEAYGSPCARGSQPWQVSLFNGLSFHCAGVLVDQSWVLTAAHCGNKPLWARVGDDHLLLLQGEQLRRTTRSVVHPKYHQGSGPILPRRTDEHDLMLLKLARPVVLGPRVRALQLPYRCAQPGDQCQVAGWGTTAARRVKYNKGLTCSSITILSPKECEVFYPGVVTNNMICAGLDRGQDPCQSDSGGPLVCDETLQGILSWGVYPCGSAQHPAVYTQICKYMSWINKVIRSN`
Reply | 26.7

Ask | Check the records and state percentage of EdU-negative for `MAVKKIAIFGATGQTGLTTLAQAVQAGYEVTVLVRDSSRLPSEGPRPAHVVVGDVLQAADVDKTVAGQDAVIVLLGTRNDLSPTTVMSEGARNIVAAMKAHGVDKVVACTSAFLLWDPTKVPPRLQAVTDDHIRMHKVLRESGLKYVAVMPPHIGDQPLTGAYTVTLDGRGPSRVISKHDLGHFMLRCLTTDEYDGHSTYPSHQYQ`
Reply | 22.7

Ask | Answer with reported percentage of EdU-negative of `MLVRRGARAGPRMPRGWTALCLLSLLPSGFMSLDNNGTATPELPTQGTFSNVSTNVSYQETTTPSTLGSTSLHPVSQHGNEATTNITETTVKFTSTSVITSVYGNTNSSVQSQTSVISTVFTTPANVSTPETTLKPSLSPGNVSDLSTTSTSLATSPTKPYTSSSPILSDIKAEIKCSGIREVKLTQGICLEQNKTSSCAEFKKDRGEGLARVLCGEEQADADAGAQVCSLLLAQSEVRPQCLLLVLANRTEISSKLQLMKKHQSDLKKLGILDFTEQDVASHQSYSQKTLIALVTSGALLAVLGITGYFLMNRRSWSPTGERLGEDPYYTENGGGQGYSSGPGTSPEAQGKASVNRGAQENGTGQATSRNGHSARQHVVADTEL`
Reply | 26.6

Ask | Look up and report measured percentage of EdU-negative for this entry: `MAPISLSWLLRLATFCHLTVLLAGQHHGVTKCNITCSKMTSKIPVALLIHYQQNQASCGKRAIILETRQHRLFCADPKEQWVKDAMQHLDRQAAALTRNGGTFEKQIGEVKPRTTPAAGGMDESVVLEPEATGESSSLEPTPSSQEAQRALGTSPELPTGVTGSSGTRLPPTPKAQDGGPVGTELFRVPPVSTAATWQSSAPHQPGPSLWAEAKTSEAPSTQDPSTQASTASSPAPEENAPSEGQRVWGQGQSPRPENSLEREEMGPVPAHTDAFQDWGPGSMAHVSVVPVSSEGTPSREPVASGSWTPKAEEPIHATMDPQRLGVLITPVPDAQAATRRQAVGLLAFLGLLFCLGVAMFTYQSLQGCPRKMAGEMAEGLRYIPRSCGSNSYVLVPV`
Reply | 24.7

Ask | // fetch percentage of EdU-negative given entry MIFLLLMLSLELQLHQIAALFTVTVPKELYIIEHGSNVTLECNFDTGSHVNLGAITASLQKVENDTSPHRERATLLEEQLPLGKASFHIPQVQVRDEGQYQCIIIYGVAWDYKYLTLKVKASYRKINTHILKVPETDEVELTCQATGYPLAEVSWPNVSVPANTSHSRTPEGLYQVTSVLRLKPPPGRNFSCVFWNTHVRELTLASIDLQSQMEPRTHPTWLLHIFIPFCIIAFIFIATVIALRKQLCQKLYSSKDTTKRPVTTTKREVNSAI [Q9BQ51]
Reply | 23.9

Ask | Please list percentage of EdU-negative recorded for the sequence MAAAVVLAAGLRAARRAVAATGVRGGQVRGAAGVTDGNEVAKAQQATPGGAAPTIFSRILDKSLPADILYEDQQCLVFRDVAPQAPVHFLVIPKKPIPRISQAEEEDQQLLGHLLLVAKQTAKAEGLGDGYRLVINDGKLGAQSVYHLHIHVLGGRQLQWPPG [Q9BX68]
Reply | 24.7

Ask | Read off the recorded percentage of EdU-negative for `MVAGSDAGRALGVLSVVCLLHCFGFISCFSQQIYGVVYGNVTFHVPSNVPLKEVLWKKQKDKVAELENSEFRAFSSFKNRVYLDTVSGSLTIYNLTSSDEDEYEMESPNITDTMKFFLYVLESLPSPTLTCALTNGSIEVQCMIPEHYNSHRGLIMYSWDCPMEQCKRNSTSIYFKMENDLPQKIQCTLSNPLFNTTSSIILTTCIPSSGHSRHRYALIPIPLAVITTCIVLYMNGILKCDRKPDRTNSN`
Reply | 27.3

Ask | Give the measured percentage of EdU-negative for `MEEAILVPCVLGLLLLPILAMLMALCVHCHRLPGSYDSTSSDSLYPRGIQFKRPHTVAPWPPAYPPVTSYPPLSQPDLLPIPRSPQPLGGSHRTPSSRRDSDGANSVASYENEGASGIRGAQAGWGVWGPSWTRLTPVSLPPEPACEDADEDEDDYHNPGYLVVLPDSTPATSTAAPSAPALSTPGIRDSAFSMESIDDYVNVPESGESAEASLDGSREYVNVSQELHPGAAKTEPAALSSQEAEEVEEEGAPDYENLQELN`
Reply | 25.6

Attribution: the supplement of paper PMC11316812
